Experiment: GAA30 FXN promoter activators, confirmation, counter-screen for GAA850 frataxin promoter activator project, cell-based, luminescence, HEK293, lucGAA30, triplicate (AID 588350);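 also: counterscreen of GAA850 promoter hits where activity marks nonselective or luminescence artifacts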
Conditions: HEK293 lucGAA30 FXN promoter luciferase, 24 h; at 6 µM; hits give high values; DMSO = 0%, 5 µM ipriflavone = 100%
Screen size: about 1,900 compounds; about 1,200 (63%) were called active. So high a share suggests a set chosen from earlier hits. The list is a sample of the results.
Observed property: activation (%)
API: value field is a number in %; no unit string.

- Compound: "CC(C)(C)N1C(=O)[C@H]2[C@@H](c3ccc(Br)cc3)N3C(=O)N(c4cccc(Cl)c4)C(=O)[C@@]3(C)[C@H]2C1=O"
  Unit descriptor: "%"
  activation: 20.4

Challenge: Can you look up the measured activation of O=C(COc1ccc(Cl)cc1Cl)NCCCNC(=O)c1cnccn1 for me?
Response given: 11.8

Challenge: What do we get for Cc1ccc(C(=O)NNc2ncnc3ccccc23)cc1 ?
Response given: 79.1

Challenge: Proceed to Cc1ccccc1Nc1c([N+](=O)[O-])ccc2nonc12
Response given: 29.2

Challenge: Another compound to look at: Cc1c(-c2ccccc2)nc(N)c(C#N)c1-c1cccs1
Response given: 23.3

Challenge: Moving on to the next compound: Cc1cc(OCc2cc(C(=O)NCc3cc(C(C)C)no3)no2)cc(C)c1Cl
Response given: 110
